These data points were gathered from patent EP3290412A1.

target: NC(11-55) (Human immunodeficiency virus type 1)
assayExplanation: NC inhibition assay (NC-induced cTAR DNA destabilization, fluorescence)
Format: biochemical, HIV-1
valueKind: log10(IC50) (log10 of the value in µM)
Response schema: value (number) is log10 of IC50 in units of µM.

Give log10(IC50) for this entry on NC(11-55) (Human immunodeficiency virus type 1): CC1CCCCC1NC(=O)c1nc(-c2ccccn2)nc(O)c1O (centres unmarked)
1.70

Give log10(IC50) for this entry on NC(11-55) (Human immunodeficiency virus type 1): C[C@@H](NC(=O)c1nc(-c2cccc(N)n2)nc(O)c1O)C1CCCCC1
1.48

Give log10(IC50) for this entry on NC(11-55) (Human immunodeficiency virus type 1): C[C@@H](NC(=O)c1nc(-c2cc(CCN(C)C)ccn2)nc(O)c1O)C1CCCCC1
1.00

Give log10(IC50) for this entry on NC(11-55) (Human immunodeficiency virus type 1): C[C@@H](NC(=O)c1nc(-c2ccc(C(=O)OCc3ccccc3)cn2)nc(O)c1O)C1CCCCC1
1.00

Give log10(IC50) for this entry on NC(11-55) (Human immunodeficiency virus type 1): O=C(OCCC1CCCCC1)c1nc(-c2ccccn2)nc(O)c1O
1.76

Give log10(IC50) for this entry on NC(11-55) (Human immunodeficiency virus type 1): C[C@@H](NC(=O)c1nc(-c2cc(N)ccn2)nc(O)c1O)C1CCCCC1
0.60

Give log10(IC50) for this entry on NC(11-55) (Human immunodeficiency virus type 1): C[C@@H](NC(=O)c1nc(-c2nc3ccccc3[nH]2)nc(O)c1O)C1CCCCC1
0.40

Give log10(IC50) for this entry on NC(11-55) (Human immunodeficiency virus type 1): C[C@H](CC1CCCCC1)NC(=O)c1nc(-c2ccccn2)nc(O)c1O
1.16
